system: SF-268; assay: NCI tumour cell line growth inhibition, 48 h
Active and inactive are the calls of the source. No stated cut-off is given here; in the data, active = GI50 up to about 1.1 µM and inactive = higher.
Returns: one label drawn from Yes = active, No = inactive

Completed entries (count: 3):
Molecule: CCOC(=O)Cn1c2ccc(Br)cc2c2nc3ccccc3nc21
Classification: No
//
Molecule: CCCCCCCCCc1cccc(N2C(N)=NC(N)=NC2(C)C)c1
Classification: Yes
//
Molecule: COc1ccc2c3c([nH]c2c1[N+](=O)[O-])C(C)N(C)CC3 (stereo unspecified)
Classification: No

query: Which outcome was assigned to CC(O)(C#N)CC(O)(C(F)(F)Cl)C(F)(F)Cl (stereo unspecified) in this test?
result: No

query: Which outcome was assigned to CC1=C2C(O)C(C(C)CO)C(O)CC2(C)C(O)CC1 (stereo unspecified) in this test?
result: No

query: Which outcome was assigned to "CCOC(=O)Nc1cc2c(c(N)n1)N=C(c1ccc(Cl)cc1Cl)CN2" in this test?
result: Yes

====

Listed below: GI50 values for each entry.
tested on: MDA-MB-435; assay: NCI tumour cell line growth inhibition, 48 h
Active and inactive are the calls of the source. No stated cut-off is given here; in the data, active = GI50 up to about 1.1 µM and inactive = higher.

Would you please look over these solved cases?
Compound: C/C(=N\NC(=O)c1ccccc1O)c1cccc(/C(C)=N/NC(=O)c2ccccc2O)n1
Test Result: 41.8 µM (inactive)

Compound: COC(=O)CN(CC(=O)NCCCBr)C1CCCCC1N(CC(=O)OC)CC(=O)OC (stereo unspecified)
Test Result: > 100 µM (inactive)

Compound: OCCNC1=Nc2ccc(Cl)cc2C(=S)N2CSC[C@@H]12
Test Result: > 100 µM (inactive)

Compound: CC(=O)[C@@]1(C)CC2(CCN(C)CC2)OC1C (stereo partly specified)
Test Result: > 100 µM (inactive)

In plain terms, CCCCC(=C=C(C)CO)C1CCCN1C(=O)OC(C)(C)C (stereo unspecified) has a documented GI50 of 18.8 µM (inactive)

In plain terms, "c1cc(C[S+]2CCCC2)ccc1C[S+]1CCCC1" has a documented GI50 of > 100 µM (inactive)

====

tested on: UACC-62; assay: NCI tumour cell line growth inhibition, 48 h
Activity calls are given as the source filed them. No stated cut-off is given here; in the data, active = GI50 up to about 1.1 µM and inactive = higher.
Listed below: GI50 values for each entry.

Would you please look over these solved cases?
Molecule: CC1=C2C(O)C(C(C)CO)C(O)CC2(C)C(O)CC1 (configuration not stated)
Target Or System: UACC-62
GI50: > 100 µM (inactive)

Molecule: CCN(CCC#N)C(=O)Nc1ccccc1
Target Or System: UACC-62
GI50: > 100 µM (inactive)

Molecule: Cc1ccc(-n2cc(-c3ccc(Cl)cc3)c3c(N/N=C4\SCC(=O)N4C)ncnc32)cc1
Target Or System: UACC-62
GI50: 3.44 µM (inactive)

Molecule: CCOC(=O)CC1CCN(C(=O)c2ccccc2)C2Cc3c([nH]c4ccccc34)C12C[N+](=O)[O-] (configuration not stated)
Target Or System: UACC-62
GI50: 58.7 µM (inactive)

Molecule: CC1(C)N=C(/C(Cl)=[N+](/[O-])C(=O)c2ccc(F)cc2)C(C)(C)N1O
Target Or System: UACC-62
GI50: 16.7 µM (inactive)

In plain terms, "CCN(CC)C(=O)C/C(C)=N/NC(=O)c1ccncc1" has a documented GI50 of > 100 µM (inactive)

In plain terms, "COc1ccc2c(c1)[nH]c1c(/C=C/c3ccccc3)nccc12" has a documented GI50 of 14.5 µM (inactive)

In plain terms, N=C(N)NCCCC(NCc1c2ccccc2[n+]([O-])c2ccccc12)C(=O)O (configuration not stated) has a documented GI50 of 54.8 µM (inactive)

In plain terms, "Cc1ccc(-n2cc([Si](C)(C)C)nn2)s1" has a documented GI50 of > 100 µM (inactive)

In plain terms, "CCOC(=O)CCCOc1cc(-c2ccccc2F)nc2cc3c(cc12)OCO3" has a documented GI50 of 84.9 µM (inactive)

In plain terms, "OCCCCCNc1c2ccccc2nc2ccccc12" has a documented GI50 of 1.8 µM (inactive)

In plain terms, "Cc1cc(-c2ccc(C(=O)O)[nH]2)on1" has a documented GI50 of 48 µM (inactive)

====

system: HCC 2998; test: NCI tumour cell line growth inhibition, 48 h
The source made the active and inactive calls. No stated cut-off is given here; in the data, active = GI50 up to about 1.1 µM and inactive = higher.
Observation Type: GI50

Would you please look over these solved cases?
Molecule: COc1cc(C2c3cc4c(cc3OC(NNc3ccccc3)C2C)OCO4)cc(OC)c1O (stereo not given)
GI50: 0.331 µM (active)
//
Molecule: Cn1cnc([N+](=O)[O-])c1Sc1nccc(O)n1
GI50: > 100 µM (inactive)
//
Molecule: CCOC(=O)c1cc(C2CCN(Cc3ccccc3)C2=O)c(C(=O)/C=C(/C)N)[nH]1 (stereo not given)
GI50: > 100 µM (inactive)
//
Molecule: COc1c(C)c(C/C=C(\C)CCCCO[Si](c2ccccc2)(c2ccccc2)C(C)(C)C)c(OC)c(OC)c1OC
GI50: 41.8 µM (inactive)

Now, please, on to the next molecule.
In plain terms, CC(=O)OCC1OC(n2c(C)c(C)c(C)c(C#N)c2=S)C(OC(C)=O)C(OC(C)=O)C1OC(C)=O (stereo not given) has a documented GI50 of > 100 µM (inactive)

====

Listed below: GI50 values for each entry.
tested on: RXF 393; experiment: NCI tumour cell line growth inhibition, 48 h
Activity calls are given as the source filed them. Cut-off read from the data, not from the text of the source: active = GI50 up to about 1.1 µM and inactive = higher.

Would you please look over these solved cases?
Compound: CCOC(=O)C1(C(=O)OCC)COS(=O)OC1
Observation Type: GI50
Test Result: 18.3 µM (inactive)
--
Compound: CCC(/C=C/c1ccccc1)=N\NC(=S)N/N=C(/C=C/c1ccccc1)CC
Observation Type: GI50
Test Result: 38.5 µM (inactive)
--
Compound: O=C1CCC2(CC1CC(Sc1ccccc1)Sc1ccccc1)OCCO2 (configuration not stated)
Observation Type: GI50
Test Result: 36.1 µM (inactive)
--
Compound: O=C(N/C=C1\C(=O)Oc2ccccc2C1=O)Oc1ccccc1
Observation Type: GI50
Test Result: 8.59 µM (inactive)

In plain terms, "CCc1nnc(-n2c(C)nc3cc(Cl)ccc3c2=O)s1" has a documented GI50 of 47.3 µM (inactive)

In plain terms, "OCCNC1=Nc2ccc(Cl)cc2C(=S)N2CSC[C@@H]12" has a documented GI50 of > 100 µM (inactive)

In plain terms, "Cc1c(-c2ccccc2)c(C#N)c2nnn(C)c(=O)n12" has a documented GI50 of 57.1 µM (inactive)

In plain terms, "CCc1nc(N)nc(N)c1-c1ccc([N+](C)(C)C)cc1" has a documented GI50 of > 100 µM (inactive)

In plain terms, CN(C)CCN1CCc2c([nH]c3ccccc23)C1c1cccnc1 (configuration not stated) has a documented GI50 of 20.2 µM (inactive)

In plain terms, "O=C(O)c1ccccc1C(=O)Nn1cnnc1" has a documented GI50 of > 100 µM (inactive)

In plain terms, "Clc1cccc(-c2sc(-c3ccsc3)cc2Cc2ccsc2)c1" has a documented GI50 of > 10 µM (inactive)

In plain terms, "O=c1cc(N2CCCC2)[nH]c(=O)n1-c1cccc(Cl)c1" has a documented GI50 of > 100 µM (inactive)

====

system: DU-145; experiment: NCI tumour cell line growth inhibition, 48 h
Active and inactive are the calls of the source. Cut-off read from the data, not from the text of the source: active = GI50 up to about 1.1 µM and inactive = higher. Where a SMILES comes first, the peptide text is derived from it. [ ]: non-standard residue; d: D form. Aoe = N[C@@H](CCCCCC(=O)[C@@H]1CO1)C(=O)O
Returns: one label drawn from true (1) = active, false (0) = inactive

Compound: CCc1nc(N)nc(N)c1-c1ccc([N+](C)(C)C)cc1
Target Or System: DU-145
Classification: false (0)
//
Compound: O=C1CC(c2cccc(Br)c2)n2cccc21 (centres undefined)
Target Or System: DU-145
Classification: false (0)

query: Which outcome was assigned to COC1OC(CBr)C(OC(c2ccccc2)(c2ccccc2)c2ccccc2)C(OC(c2ccccc2)(c2ccccc2)c2ccccc2)C1OC(c1ccccc1)(c1ccccc1)c1ccccc1 (centres undefined) in this test?
result: false (0)

query: Which outcome was assigned to "CSC(SC)=C1CC(=O)Nc2ccccc2C1=O" in this test?
result: false (0)

query: Which outcome was assigned to NC(CCCCP(=O)(O)O)C(=O)O (centres undefined) in this test?
result: false (0)

query: Which outcome was assigned to "O=C(CSC1=NCCN1)c1ccccc1" in this test?
result: false (0)

query: Which outcome was assigned to O=C1N[C@@H](Cc2ccccc2)C(=O)N2CCC[C@@H]2C(=O)N[C@@H](CCCCCC(=O)[C@@H]2CO2)C(=O)N[C@H]1Cc1ccccc1 [TRAPOXIN B] (cyclo(FF[dP][Aoe])) in this test?
result: true (1)

query: Which outcome was assigned to "C/C(=N\NC(=O)c1ccccc1O)c1cccc(/C(C)=N/NC(=O)c2ccccc2O)n1" in this test?
result: false (0)

query: Which outcome was assigned to Cc1cccc2c1Oc1cc(Cl)ccc1C2NC(=O)CCN1CCOCC1 (centres undefined) in this test?
result: false (0)
